Quick note: these are GI50 numbers for system: HCT-15
Quantity kind: GI50

Nc1nc(=O)[nH]c2c1cnn2C1CCCCO1 (stereo not drawn): > 100 µM
Cc1ccc(/C=C2\CCCCC2=O)cc1: > 100 µM
c1ccc(/N=C2\C(=N/c3ccccc3)N(C3CCCCC3)/C(=N\C3CCCCC3)N2c2ccccc2)cc1: > 100 µM
Cn1nc(S(N)(=O)=O)s/c1=N/C(N)=S: > 100 µM
CC(C)N(C(=O)C12C3C4C5(C(=O)O)C(C1C35I)C42C(=O)O)C(C)C (stereo not drawn): > 100 µM
COc1ccc(CC(O)CN2CCOCC2)cc1 (stereo not drawn): > 100 µM
O=C(n1c2ccccc2c2nnc(S)nc21)C(F)(F)F: > 100 µM
Cc1n[nH]c(=O)n1-c1cccnc1: > 100 µM
CCO/C=C1\N=C(c2ccc(Cl)c(Cl)c2)OC1=O: > 100 µM
O=C1NCC2(CCN(CCCC3(c4ccc(F)cc4)OCCO3)CC2)N1c1ccccc1: > 100 µM
COc1ccc2nc3n(c2c1)C(c1c(Cl)cccc1Cl)SC3 (stereo not drawn): > 100 µM
CO/N=C(\C(=O)Nc1cncs1)c1csc(N)n1: > 10 µM
Nc1cnc2c(c1)c(=O)nc1n2CCS1: > 100 µM
O=c1cnn(C/C=C/CO)c(=O)[nH]1: > 100 µM
COc1ccc(Cc2c3cc(OC)c(OC)cc3cc[n+]2C)cc1: > 31.3 µM
Cc1ccc(-n2c3nc(=O)n(C)c(=O)c-3nc3ccccc32)c(C)c1: 9.62 µM
CCCCn1cnnc1NS(=O)(=O)c1cc(C)c(Cl)cc1SCC(=O)O: > 10 µM
CC(NC(=O)C(NC(=O)C(NC(=O)C(F)(F)F)C(C)C)C(C)C)C(=O)Oc1c(Cl)c(Cl)c(Cl)c(Cl)c1Cl (stereo not drawn): > 100 µM
Cc1ccc(Cc2n[nH]c(=O)n2N2C(=O)c3ccccc3C2=O)cc1: > 100 µM
COc1ccc(/C=N/n2c(Cc3ccc(Cl)cc3)n[nH]c2=O)c(OC)c1: 36.3 µM
COc1ccc2[nH]c3c(C)c4cnccc4c(C)c3c2c1: 1.61 µM
CCN(CC)Cc1ccc(C(=S)Nc2ccc(Cl)cc2)s1: 10.7 µM
C=C1C(=O)OC2/C=C(\C)C(OC(C)=O)C3OC3C(C)(O)CC(OC(=O)/C(C)=C/C)C12 (stereo not drawn): 12.8 µM
BrC(c1cccc2ccccc12)c1cccc2ccccc12: 17.7 µM
C/C(=N\NC(=S)Nc1ccc([N+](=O)[O-])cc1)c1nc2cccnc2[nH]1: 0.617 µM
O=C(CCCC(=O)N1CC(CCl)c2ccc([N+](=O)[O-])cc21)N1CC(CCl)c2ccc([N+](=O)[O-])cc21 (stereo not drawn): > 100 µM
COC(=O)C(/C(=N/N)C(=O)Nc1cccc(O)c1)c1nc2ccccc2nc1O (stereo not drawn): > 100 µM
COC12c3ccccc3-c3ccccc3C1[C@@H](C(=O)O)[C@H]2C(=O)O (stereo partly drawn): > 10 µM
CC(/C=C/c1ccccc1)=N\NC(=S)N/N=C(C)/C=C/c1ccccc1: 12.7 µM
CCOC(=O)/C(O)=C(/c1n[nH]c(=O)c2ccccc12)[N+](=O)[O-]: > 100 µM
c1ccc(C(c2ccccc2)c2ccccn2)cc1: > 100 µM
O=c1c2cc([N+](=O)[O-])ccc2n2n1CCCCC2: > 100 µM
COc1cc(/C=C2\C(=O)N(c3ccccc3Cl)C(c3ccccc3)S2(=O)=O)cc(OC)c1OC (stereo not drawn): 44.7 µM
